This listing pairs molecules with measured TGI.
# System: HCT-15 colon
# assay protocol: NCI tumour cell line growth inhibition, 48 h
readout name: TGI

* C=C1C(=O)OC2/C=C(/C)C(OC(C)=O)CC(O)/C(C)=C\C(OC(=O)/C(C)=C\C)C12 (stereo not given) | > 100 µM
* CCN(CC)Cc1ccc(Nc2nccc(-c3cnn4ncccc34)n2)cc1 | > 25 µM
* CSc1n[nH]c(N)c1C(=O)Nc1ccc(C)cc1 | > 100 µM
* CCSCCCN(CCCSCC)CCCSCC | > 100 µM
* [N-]=[N+]=NC(CI)c1cn([C@H]2C[C@H](O)[C@@H](CO)O2)c(=O)[nH]c1=O (stereo not given in full) | > 100 µM
* O=C1c2cc3c(cc2CC12Cc1ccc4c(c1C2=O)CCCC4)CCCC3 (stereo not given) | > 100 µM
* CC1(C)[C@H]2CC[C@]1(C)[C@H](OC(=O)NNC(=O)O[C@@H]1C[C@@H]3CC[C@@]1(C)C3(C)C)C2 | 27.5 µM
* COc1cc2cc[n+]3c(C)c4cc(OC)c(OC)cc4c([O-])c3c2cc1OC | > 100 µM
* CSC1=N/C(=C\c2ccco2)C(=O)N1CN1CCOCC1 | > 100 µM
* N#Cc1ccccc1-c1nc2c3c(c(N)ccc3n1)C(=O)c1ccccc1-2 | > 100 µM

---

Recorded TGI by entry
# System: UACC-62 melanoma
# assay protocol: NCI tumour cell line growth inhibition, 48 h
readout name: TGI

* COc1cc([C@H]2OC[C@H]3[C@@H]2CO[C@@H]3c2cc(OC)c3c(c2)OCO3)cc(OC)c1OC | > 100 µM
* O=C(Cn1c(C(=O)/C=C/c2cccs2)nc2ccccc21)c1ccc(Cl)cc1 | > 100 µM
* COc1ccc(C(=O)c2cc3c(N)c(C(=O)Nc4cccc5ccccc45)sc3nc2C)cc1 | > 50 µM
* O=C(c1ccccc1)c1cccc(C(=O)c2ccccc2)c1 | > 100 µM
* COc1ccc(C)cc1Nc1nnc(-c2ccccc2N)s1 | > 100 µM
* CN1CC[C@@H](c2c(O)cc(O)c3c(=O)cc(-c4ccccc4Cl)oc23)[C@@H]1CO | 0.578 µM
* Cc1cccc(C(C)C)c1NC(=O)CC1C(=O)Nc2ccccc2S1(=O)=O (stereo not given) | > 51.1 µM
* CC(C)(O)CC(=O)NCCn1ccc2ncnc(Nc3ccc(Oc4cccc(C(F)(F)F)c4)c(Cl)c3)c21 | > 10 µM
* COC(=O)CCC(NC(=S)N/N=C/c1ccco1)C(=O)OC (stereo not given) | > 100 µM
* COc1ccc2ccccc2c1C1OC(=O)c2ccccc21 (stereo not given) | > 100 µM

---

# Tested on: MDA-MB-231 breast
# assay protocol: NCI tumour cell line growth inhibition, 48 h; in the data active = GI50 below about 0.43 µM; inactive = the rest
Outcome codes: 1 for active, 0 for inactive

* O=C(Nc1cccc(NC(=O)Nc2cc(C(F)(F)F)ccc2Cl)c1)Nc1cc(C(F)(F)F)ccc1Cl | 0
* Cn1cc(C2=C(c3cccc(OCC(O)CO)c3)C(=O)NC2=O)c2ccccc21 (stereo unspecified) | 0
* Clc1nc(Cl)c2ncn(C/C=C/COc3cccc(OC/C=C/Cn4cnc5c(Cl)nc(Cl)nc54)c3)c2n1 | 0
* O=C(/C=C/c1ccc([N+](=O)[O-])cc1)c1ccc2c3c(cccc13)CC2 | 0
* COc1ccc(C(=O)c2cc3c(N)c(C(=O)Nc4cccc5ccccc45)sc3nc2C)cc1 | 1
* NC(=O)c1c(NC(=O)c2ccc3c(c2)OCO3)sc2c1CCC(=O)C2 | 0
* O=[N+]([O-])c1cccc([As]=[As]c2cccc([N+](=O)[O-])c2)c1 (stereo unspecified) | 1
* Cc1cc(N2CCCC2)nc(N(CCNc2ccnc3cc(Cl)ccc23)Cc2ccco2)n1 | 0
* Nc1nc(Nc2ccc(C3CCC(N4CCOCC4)CC3)cc2)nn1-c1ccccn1 (stereo unspecified) | 0
* O=C(COc1ccc(/C=C2\Oc3ccccc3C2=O)cc1)Nc1nc2c(s1)CCCC2 | 0
* CCCOC(=O)N1CCN(/[N+]([O-])=N/Oc2ccc([N+](=O)[O-])cc2[N+](=O)[O-])CC1 | 0

---

# Test system: SNB-19 CNS
# assay protocol: NCI tumour cell line growth inhibition, 48 h
readout name: TGI

• C[C@@H]1CC[C@H]2C(C(O)CCCCC(O)C3=C(C(F)(F)F)O[C@@H]4O[C@@]5(C)CC[C@H]6[C@H](C)CC[C@@H]3[C@@]46OO5)=C(C(F)(F)F)O[C@@H]3O[C@@]4(C)CC[C@@H]1[C@]32OO4 (some centres undefined) = > 100 µM
• C1CN(SSN2CCOCC2)CCO1 = > 100 µM
• CCOc1ccccc1N=Nc1c(C)[nH]n(-c2nc(-c3ccccc3)cs2)c1=O = > 100 µM
• CC1=C2C(=CC(C)(C)C2O)C(=O)C(C)(O)C12CC2 (centres undefined) = 0.17 µM
• NC(=O)c1c(NC(=O)c2ccc3c(c2)OCO3)sc2c1CCC(=O)C2 = > 100 µM
• c1cn(C23C4C5C6C4C2C6C53)cn1 (centres undefined) = > 100 µM
• C(CCCCc1nnc(N2CCCCC2)o1)CCCc1nnc(N2CCCCC2)o1 = > 100 µM
• C[CH2][Sn]([CH2]C)([O]C(=O)C(OC(C)=O)c1ccccc1)[O]C(=O)C(OC(C)=O)c1ccccc1 (centres undefined) = > 100 µM
• CN1CC[C@@H](c2c(O)cc(O)c3c(=O)cc(-c4ccccc4Cl)oc23)[C@@H]1CO = > 10 µM

---

# Test system: SR leukemia
# assay protocol: NCI tumour cell line growth inhibition, 48 h; in the data active = GI50 below about 0.43 µM; inactive = the rest
Outcomes: active, inactive

- Cc1c2c(nn1C)CSCc1cc(n(C)n1)CSc1cc(c3ccccc3c1)OCCCc1c(C(=O)O)n(C)c3c-2c(Cl)ccc13: inactive
- CN1CC[C@@H](c2c(O)cc(O)c3c(=O)cc(-c4ccccc4Cl)oc23)[C@@H]1CO: active
- Nc1nc(Nc2ccc(C3CCC(N4CCOCC4)CC3)cc2)nn1-c1ccccn1 (stereo not given): active
- O=C(Nc1ccc(Cl)c(Cl)c1)O/N=C\c1c(Cl)ccc([N+](=O)[O-])c1Cl: inactive
- C/C=C(\C)C(=O)O[C@H]1C=CC(=O)O[C@@H]1CC[C@H](O)[C@H](C)O: inactive

---

Catalogue of TGI readings, one per entry.
# Tested on: NCI-H23 lung
# assay protocol: NCI tumour cell line growth inhibition, 48 h
readout name: TGI

- CC1=NN(c2nc(N)nc(/C(C#N)=C/c3cccn3-c3cc(Cl)cc(Cl)c3)n2)C(C)(C)C1: > 100 µM
- CN(/N=C/c1cccc2cccnc12)c1ccccc1: > 100 µM
- Cc1cn(Cc2cnnn2CC2OC(n3cc(C)c(=O)[nH]c3=O)CC2O)c(=O)[nH]c1=O (stereo unspecified): > 100 µM
- CCCCN(CCCC)c1ccc(C(=N)c2ccc(N(CCCC)CCCC)cc2)cc1: 1.06 µM
- CCCC(=O)NC(Nc1ccc(S(=O)(=O)Nc2nc(C)cc(C)n2)cc1)(C(F)(F)F)C(F)(F)F: > 100 µM
- O=C1/C(=N\S(=O)(=O)c2ccccc2)C([n+]2ccc(Cc3ccccc3)cc2)=C([O-])c2ccccc21: 1.36 µM
- CCCCCC(C)SC1(C(=O)OC)CC(OC(C)=O)C(NC(C)=O)C([C@H](OC(C)=O)[C@@H](COC(C)=O)OC(C)=O)O1 (stereo partly specified): > 100 µM
- CCc1cccc(C)c1NC(=O)C(=O)Cc1nc2ccccc2s1: > 100 µM
- O=C(NC[C@H](O)CO)c1ccncc1Nc1ccc(I)cc1F: > 71.8 µM
- O=C(Nc1ccc(Cl)cc1)Nc1ccc(Nc2nncc3ccccc23)cc1: 14.4 µM
- C=C1C(=O)OC2/C=C(/C)C(OC(C)=O)CC(O)/C(C)=C\C(OC(=O)/C(C)=C\C)C12 (stereo unspecified): > 100 µM
- S=C1SCN(Cc2ccco2)CN1c1ccc(Br)cc1: 29.2 µM
- COc1cc([C@H]2OC[C@H]3[C@@H]2CO[C@@H]3c2cc(OC)c3c(c2)OCO3)cc(OC)c1OC: > 100 µM
- CC(=O)Nc1ccc(OC2=CCN(C)CC2)cc1: > 100 µM
- CC1CC/C(=C\c2ccc(Cl)cc2)C2OC(N)=C(C#N)C(c3ccc(Cl)cc3)=C12 (stereo unspecified): 29.4 µM
- COc1ccc2c(c1)c(CC(=O)O)c(C)n2C(=O)c1ccc(Cl)cc1: > 100 µM
- COc1ccc(C2=NN(c3ccccc3)C[N+](c3ccc(OC)cc3)=N2)cc1: 93.1 µM
- CC1(C)[C@@H](OC(N)=O)[C@H]2O[C@H]2[C@]2(CO)[C@H]3CC[C@]4(C)[C@@H](c5ccc(=O)oc5)[C@@H](Cl)C[C@]4(O)C3=CC[C@@H]12: 0.0152 µM
- CC[N+]1(C)CCC(O)(c2ccc(Cl)c(Cl)c2)C(C(=O)c2ccc(Cl)c(Cl)c2)C1 (stereo unspecified): > 10 µM
- Cc1ccc(S(=O)(=O)Nc2cccc3[nH]c(C(F)(F)F)nc23)cc1: 41.5 µM
- CCN(CC)Cc1ccc(Nc2nccc(-c3cnn4ncccc34)n2)cc1: 0.126 µM
- O=C(Nc1nc2ccccc2s1)c1cc([N+](=O)[O-])ccc1Cl: > 43.4 µM
- C=C(CO[Si](C)(C)C(C)(C)C)C(C)=O: > 56.3 µM
- CC(C)C(OC(=O)c1ccc(NCc2cc(O)ccc2O)cc1)C(C)C: 6.56 µM
- O=C(/C=C/c1ccc([N+](=O)[O-])cc1)c1ccc2c3c(cccc13)CC2: > 100 µM
- Nc1ccccc1CC(O)C(=O)O (stereo unspecified): > 100 µM
- CCOP(=O)(OCC)C1CC(n2cc(C)c(=O)[nH]c2=O)OC1CO (stereo unspecified): > 100 µM
- CN1CCN(CCCBr)CC1: > 100 µM
- CC(C)c1cccc2sc(NC(=O)C(=O)C(C#N)c3cccc4ccccc34)nc12 (stereo unspecified): > 100 µM
- CCOC(=O)C(=Cc1cccnc1C)C(=O)OCC: 18.4 µM
- O=[N+]([O-])c1cccc([As]=[As]c2cccc([N+](=O)[O-])c2)c1 (stereo unspecified): 0.384 µM
- COc1ccc(C(SC2C(O)C(CO)OC2n2ccc(N)nc2=O)(c2ccccc2)c2ccc(OC)cc2)cc1 (stereo unspecified): 57.6 µM
- COC(=O)CCC(NC(=S)N/N=C/c1ccco1)C(=O)OC (stereo unspecified): > 100 µM
- O=C(OCCN=c1c2ccccc2ccc2ccccc12)c1ccc([N+](=O)[O-])cc1: > 100 µM
- Nc1nc(Nc2ccc(C3CCC(N4CCOCC4)CC3)cc2)nn1-c1ccccn1 (stereo unspecified): 47.7 µM
- COC1OC2COC1(OC)C1OC(C)(C)OC21 (stereo unspecified): > 100 µM
- COc1ccc(OC)c2c1C(=O)C1CC1(Br)C2=O (stereo unspecified): > 100 µM
- COc1cc(/C=C2/C[C@H]3[C@@H]4CC=C5C[C@@H](OC(C)=O)CC[C@]5(C)[C@H]4CC[C@]3(C)NC2=O)cc(OC)c1OC: 67 µM
- CC1(C)C2C=CC1(C)C1(CC2)OCCO1 (stereo unspecified): > 100 µM
- CN1CC[C@@H](c2c(O)cc(O)c3c(=O)cc(-c4ccccc4Cl)oc23)[C@@H]1CO: 3.03 µM
- CCOC(=O)c1cnc2oc3ccc(O)cc3c2c1-c1ccccc1: > 100 µM
